Examples of binders with documented Trimeric HA Binding: RLU follow.
- test-target: recombinant soluble homotrimeric HA of A/Wisconsin/67/05 (H3N2) (Influenza A virus A/Wisconsin/67/2005(H3N2))
- test-method-notes: HA microarray, BCC supernatant
- particulars: remark: other sources report otherwise
Your answer is read as RLU, so omit the unit and give the number.

[
  {
    "binder": "TCN-538 (3206_O17) (antibody, V domains shown) VH: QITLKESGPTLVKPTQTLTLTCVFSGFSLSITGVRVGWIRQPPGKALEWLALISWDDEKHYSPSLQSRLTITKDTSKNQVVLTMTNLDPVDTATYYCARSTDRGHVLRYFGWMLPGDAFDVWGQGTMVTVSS VL: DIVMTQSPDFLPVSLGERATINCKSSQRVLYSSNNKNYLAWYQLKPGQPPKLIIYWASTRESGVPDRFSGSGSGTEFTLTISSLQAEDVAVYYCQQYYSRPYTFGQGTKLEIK",
    "test-value": 6900
  }
]

// moving on: another record for Trimeric HA Binding: RLU
Q. Requested field: Trimeric HA Binding: RLU. Item: TCN-551 (5243_D01) (antibody, V domains shown) VH: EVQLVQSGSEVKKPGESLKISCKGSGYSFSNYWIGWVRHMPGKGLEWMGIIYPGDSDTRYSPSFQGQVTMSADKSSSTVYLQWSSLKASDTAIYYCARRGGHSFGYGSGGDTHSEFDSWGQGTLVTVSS VL: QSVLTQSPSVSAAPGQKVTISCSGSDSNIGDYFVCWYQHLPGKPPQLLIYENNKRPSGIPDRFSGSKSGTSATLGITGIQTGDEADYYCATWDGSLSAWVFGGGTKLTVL
A. 6840

Source listed as patent US20150086555A1.
